- experimental.target: D(3) dopamine receptor (Homo sapiens, UniProt P35462)
- Sequence (P35462 whole entry): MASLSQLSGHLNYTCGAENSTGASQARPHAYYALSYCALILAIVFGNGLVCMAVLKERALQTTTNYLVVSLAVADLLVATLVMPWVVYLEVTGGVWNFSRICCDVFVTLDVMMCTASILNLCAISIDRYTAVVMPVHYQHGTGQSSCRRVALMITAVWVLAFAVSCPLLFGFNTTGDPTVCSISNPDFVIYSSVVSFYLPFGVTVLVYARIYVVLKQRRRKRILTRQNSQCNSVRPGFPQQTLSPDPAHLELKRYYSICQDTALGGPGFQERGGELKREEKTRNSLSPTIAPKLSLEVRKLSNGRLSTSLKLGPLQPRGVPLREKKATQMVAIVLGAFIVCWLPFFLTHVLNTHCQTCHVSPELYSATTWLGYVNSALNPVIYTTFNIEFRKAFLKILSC
- assay.text: DRUGMATRIX: Dopamine D3 radioligand binding (ligand: [3H] Spiperone)
- Assay type: cell membranes, CHO, Membrane
- condition.parameters: read-out: IC50
Please go through the items and note down their IC50.
Write down the numeric answer in nM and omit the unit.

Prompt: State, in one line, measured IC50 of Fc1ccc(C(c2ccc(F)cc2)N2CCN(C/C=C/c3ccccc3)CC2)cc1
Completion: 97

Prompt: State, in one line, measured IC50 of CCN(CC)CCNC(=O)c1cc(S(C)(=O)=O)ccc1OC [TIAPRIDE]
Completion: 1150

Prompt: State, in one line, measured IC50 of CO[C@@H]1[C@@H](OC)[C@H](C)[C@@](O)(CC(=O)O)O[C@H]1[C@H](C)[C@H]1O[C@@]2(CC[C@@](C)([C@H]3CC[C@@](C)([C@@H]4O[C@@H]([C@H]5O[C@](C)(O)[C@H](C)C[C@@H]5C)C[C@@H]4O[C@@H]4C[C@H](OC)[C@@H](OC)[C@H](C)O4)O3)O2)C[C@H](O)[C@H]1C
Completion: 27

====

- experimental.target: Cytochrome P450 2A6 (Homo sapiens); note: in other assays of this panel Not Active means under 50% inhibition at 10 µM
- Sequence (P11509 whole entry): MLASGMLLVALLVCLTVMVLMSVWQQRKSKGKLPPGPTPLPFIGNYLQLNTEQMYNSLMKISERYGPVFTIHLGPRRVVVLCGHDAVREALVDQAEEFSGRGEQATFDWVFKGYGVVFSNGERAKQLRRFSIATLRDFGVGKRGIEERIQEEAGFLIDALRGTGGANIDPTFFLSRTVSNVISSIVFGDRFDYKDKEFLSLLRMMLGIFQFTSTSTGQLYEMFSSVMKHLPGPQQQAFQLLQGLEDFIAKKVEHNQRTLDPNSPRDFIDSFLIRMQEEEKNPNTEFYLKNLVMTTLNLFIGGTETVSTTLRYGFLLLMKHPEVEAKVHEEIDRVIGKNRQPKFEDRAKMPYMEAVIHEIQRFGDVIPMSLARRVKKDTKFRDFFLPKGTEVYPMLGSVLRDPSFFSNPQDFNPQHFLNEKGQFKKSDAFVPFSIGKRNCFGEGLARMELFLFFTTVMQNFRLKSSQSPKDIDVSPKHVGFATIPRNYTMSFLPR
- condition.parameters: bti-tn-5b1-4

- compound: "C[C@H]1O[C@@H](n2cc(F)c(=O)[nH]c2=O)[C@H](O)[C@@H]1O"
  IC50: "Not Active"
- compound: "O=c1cc(N2CCOCC2)oc2c(-c3ccccc3)cccc12"
  IC50: "Not Active"
- compound: "COc1cc2nc(N3CCN(C(=O)C4CCCO4)CC3)nc(N)c2cc1OC (stereo not drawn)"
  IC50: "Not Active"

====

- experimental.target: Thromboxane-A synthase (Homo sapiens);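 note: enzyme inhibition assay with PGH2 supplied as substrate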; note: in other assays of this panel Not Active means under 50% inhibition at 10 µM
- Sequence (P24557 whole entry): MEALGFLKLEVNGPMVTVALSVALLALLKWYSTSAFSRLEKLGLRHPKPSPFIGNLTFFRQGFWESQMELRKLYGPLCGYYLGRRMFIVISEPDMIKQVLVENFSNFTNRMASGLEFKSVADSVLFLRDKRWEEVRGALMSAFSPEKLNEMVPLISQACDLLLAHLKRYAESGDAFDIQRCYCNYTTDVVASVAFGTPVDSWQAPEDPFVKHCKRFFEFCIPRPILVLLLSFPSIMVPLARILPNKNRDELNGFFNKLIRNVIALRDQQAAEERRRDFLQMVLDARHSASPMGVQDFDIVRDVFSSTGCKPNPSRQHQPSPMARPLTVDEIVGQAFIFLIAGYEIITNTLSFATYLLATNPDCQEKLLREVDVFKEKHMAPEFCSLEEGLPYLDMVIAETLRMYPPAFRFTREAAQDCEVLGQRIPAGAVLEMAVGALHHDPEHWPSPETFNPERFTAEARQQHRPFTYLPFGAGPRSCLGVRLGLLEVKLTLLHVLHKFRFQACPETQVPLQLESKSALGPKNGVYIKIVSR
- assay.text: biochemical
- Type: tissue-based, Platelet
- condition.parameters: platelet

- compound: "NC(=O)N1C(=O)/C(=C(\\O)c2cccs2)c2cc(Cl)ccc21 [TENIDAP]"
  IC50: "Not Active"
- compound: "COc1ccc(C(=O)N2CCCC2=O)cc1"
  IC50: "Not Active"
- compound: "CNC1(c2ccccc2Cl)CCCCC1=O (stereo not drawn) [KETAMINE]"
  IC50: "Not Active"
